Value source: ChEMBL document CHEMBL1201862

System: SK-OV-3
procedure.text: NCI tumour cell line growth inhibition, 48 h
Activity calls are given as the source filed them. No stated cut-off is given here; in the data, active = GI50 up to about 1.1 µM and inactive = higher.
Response enum: active, inactive

Recorded call for O=C(O)C(F)(F)C(F)(F)C(F)(F)C(F)(F)C(F)(F)C(F)(F)C(F)(F)C(F)(F)F ?
inactive

Moving on to the next molecule: C[C@@H]1CC(=O)[C@@]2(C)[C@](O)(CCC3O[C@]32C)[C@@]12CC(c1ccoc1)OC2=O (stereo partly drawn)
inactive

* * *

GI50 by entry:
Tested on: CAKI-1
procedure.text: NCI tumour cell line growth inhibition, 48 h
Calls of active or inactive are those of the source. Cut-off read from the data, not from the text of the source: active = GI50 up to about 1.1 µM and inactive = higher. Non-standard residues stand in square brackets, D forms with d. Residues, ends and D or L forms follow the SMILES beside them. ξ: configuration not given here. Pen = CC(C)(S)[C@H](N)C(=O)O; ξL = CC(C)CC(N)C(=O)O

Before answering, review these 2 worked examples.
{"compound": "O=C1C=C/C(=C/[C@H]2SSC=C[C@]23C=CC(=O)C3)C1", "result": "9.91 µM (inactive)"}
{"compound": "CSCC[C@H](NC(=O)C(CC(C)C)NC(=O)[C@H](Cc1c[nH]cn1)NC(=O)CNC(=O)[C@@H](NC(=O)[C@@H](C)NC(=O)[C@H](Cc1c[nH]c2ccccc12)NC(=O)[C@H](CCC(N)=O)NC(=O)[C@@H](N)CC(N)=O)C(C)(C)SC)C(N)=O (stereo partly drawn) (H-NQW[dA][Pen](Me)GH[ξL]M-NH2)", "result": "> 100 µM (inactive)"}

Next:
Would you kindly share the measured GI50 for CCCCN(CC)C(=O)C1=C(C)NC(C)=C(C(=O)N(CC)CCCC)C1 ?
> 100 µM (inactive)
